Origin of the recorded values: patent US10899738B2

- tested_on: menin protein (Homo sapiens (Human), UniProt O00255)
- Sequence (O00255 whole entry): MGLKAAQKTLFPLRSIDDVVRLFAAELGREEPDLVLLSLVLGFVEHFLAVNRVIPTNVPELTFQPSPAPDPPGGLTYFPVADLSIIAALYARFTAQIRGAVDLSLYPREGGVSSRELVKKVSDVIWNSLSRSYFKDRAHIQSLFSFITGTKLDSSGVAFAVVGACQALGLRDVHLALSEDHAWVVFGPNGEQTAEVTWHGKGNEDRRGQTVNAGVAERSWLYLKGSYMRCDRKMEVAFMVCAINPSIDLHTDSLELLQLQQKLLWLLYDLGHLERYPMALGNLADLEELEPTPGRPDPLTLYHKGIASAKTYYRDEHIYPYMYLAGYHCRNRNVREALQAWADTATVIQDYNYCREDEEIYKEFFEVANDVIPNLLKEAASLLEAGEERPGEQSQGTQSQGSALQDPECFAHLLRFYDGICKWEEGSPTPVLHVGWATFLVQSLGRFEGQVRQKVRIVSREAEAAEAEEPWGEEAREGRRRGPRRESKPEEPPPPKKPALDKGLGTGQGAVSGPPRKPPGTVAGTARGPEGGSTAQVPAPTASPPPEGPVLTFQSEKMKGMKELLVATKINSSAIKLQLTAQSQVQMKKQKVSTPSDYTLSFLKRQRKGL
- method_summary: biochemical
- Format: binding
- experimental_parameters: FP competitive binding; menin protein 4 nM, FAM-MM2 probe 2 nM; read-out: Menin Binding Affinity IC50
Decision: IC50 beneath 0.5 µM gives Criterion met; IC50 meeting or exceeding 0.5 µM gives Criterion not met.

INSERT INTO results (compound, qualitative_label) VALUES
  ('N#Cc1ccc(N2CC(CN3CCC(C4(C5CCCC5)NCCc5ccccc54)CC3)C2)cc1 (stereo not drawn)', 'Criterion met'),
  ('CNC(=O)O[C@@H]1CCC[C@H]1C(Cn1ccnc1)(c1ccccc1)C1CCN(CC2CN(c3ccc(S(=O)(=O)c4cnn(C)c4)cc3)C2)CC1 (mixture of isomers)', 'Criterion met'),
  ('N#Cc1ccc(N2CC(C(=O)N3CCC(C4(C5CCCC5)NCCc5ccccc54)CC3)C2)cc1 (stereo not drawn)', 'Criterion not met'),
  ('CNC(=O)O[C@@H]1CCC[C@H]1[C@@](C#N)(c1ccccc1)C1CCN(CC2CN(c3ccc(S(=O)(=O)c4ccncc4)cc3)C2)CC1 (mixture of isomers)', 'Criterion met'),
  ('CN1Cc2ccccc2C(C2CCN(CC3CN(c4ccc(S(=O)(=O)c5ccncc5)cc4)C3)CC2)([C@H]2CCC[C@@H]2OC(N)=O)C1 (mixture of isomers)', 'Criterion met'),
  ('C=CCC1(C2CCN(CCCOc3ccc(C#N)cc3)CC2)NCCc2ccccc21 (stereo not drawn)', 'Criterion not met'),
  ('N#CC(c1ccccc1)(C1CCN(CC2CN(c3ccc(S(=O)(=O)c4ccncc4)cc3)C2)CC1)[C@H]1CCC[C@@H]1CCO (mixture of isomers)', 'Criterion not met'),
  ('N#CC(c1ccccc1)(C1CCN(CC2CN(c3ccc(S(=O)(=O)c4ccncc4)cc3)C2)CC1)[C@@H]1CCC[C@H]1OC(N)=O (mixture of isomers)', 'Criterion met'),
  ('CC(=O)O[C@H]1CCC[C@@H]1C(C#N)(c1cccc(F)c1)C1CCN(CC2CN(c3ccc(S(=O)(=O)c4ccccc4)cc3)C2)CC1 (mixture of isomers)', 'Criterion met'),
  ('O=S(=O)(c1ccc(OC2CC(N3CCC(C4(C5CCCC5)NCCc5ccccc54)CC3)C2)cc1)C1CC1 (stereo not drawn)', 'Criterion not met'),
  ('N#CC(c1ccccc1)(C1CCN(CC2CN(c3ccc(S(=O)(=O)c4ccncc4)cc3)C2)CC1)[C@H]1CCC[C@@H]1OC(=O)C1CCC1 (mixture of isomers)', 'Criterion met'),
  ('CCN1Cc2ccccc2C(C2CCCC2)(C2CCN(CC3CN(c4ccc(S(=O)(=O)c5ccccc5)cc4)C3)CC2)C1 (stereo not drawn)', 'Criterion met');
